- experiment.description: Pharmacokinetics in CD1 mice, oral gavage and iv
- Format: in vivo, mouse
- condition.context: CD1(ICR), mouse, plasma, combined fit of both doses by both routes; read-out: Clearance, Elimination CLE
assay.readout: clearance (mL/min)
# number only, unit mL/min dropped from output

# molecule O=C1c2ccccc2OCC1c1ccc(F)cc1 (racemic) [KBU2046, (±)-3(4-fluorophenyl)chroman-4-one] ; its clearance = 1.53

###

- experiment.description: Three-day MTT cell growth inhibition assay, 1532NPTX
- Assay type: cell-based, human
- condition.context: human, 1532NPTX cells
assay.readout: viability at 3 days, 50 µM (%)
# number only, unit % dropped from output

[
  {
    "compound": "O=C1c2ccccc2OCC1c1ccc(F)cc1 (racemic) [KBU2046, (±)-3(4-fluorophenyl)chroman-4-one]",
    "viability at 3 days, 50 µM / %": 95.3
  }
]

Next:
Given item O=c1c(-c2ccc(O)cc2)coc2cc(O)cc(O)c12 [Genistein, 4′,5,7-trihydroxyisoflavone, reference compound] , the value recorded as its viability at 3 days, 50 µM is 66.9

###

- experiment.description: Pharmacokinetics in CD1 mice, oral gavage and iv
- Format: in vivo, mouse
- condition.context: CD1(ICR), mouse, plasma, combined fit of both doses by both routes; read-out: Elim Half-life (converted)
assay.readout: half-life (h)
State the answer as a number, implicitly in h.

Entry O=C1c2ccccc2OCC1c1ccc(F)cc1 (racemic) [KBU2046, (±)-3(4-fluorophenyl)chroman-4-one] ; half-life = 2.27

###

- experiment.description: Three-day MTT cell growth inhibition assay, PC3M
- Format: cell-based, human
- condition.context: human; PC3M; 3 days
assay.readout: viability at 3 days, 50 µM (%)
Just the number in %, nothing appended.

// viability at 3 days, 50 µM value for O=c1c(-c2ccc(O)cc2)coc2cc(O)cc(O)c12 [Genistein, 4′,5,7-trihydroxyisoflavone, reference compound] : 46.2

###

- experiment.description: Pharmacokinetics in CD1 mice, oral gavage and iv
- Format: in vivo, mouse
- condition.context: CD1(ICR), mouse, plasma; 25 mg/kg by oral gavage
assay.readout: bioavailability (%)
Note: unit % is implicit; provide only the numeric part.

What the record says about O=C1c2ccccc2OCC1c1ccc(F)cc1 (racemic) [KBU2046, (±)-3(4-fluorophenyl)chroman-4-one] : bioavailability is 4.6

###

- experiment.description: Pharmacokinetics in CD1 mice, oral gavage and iv
- Format: in vivo, mouse
- condition.context: CD1(ICR), mouse, plasma, combined fit of both doses by both routes; read-out: Distribution volume, Total VSS
assay.readout: Vd

Form: molecule = O=C1c2ccccc2OCC1c1ccc(F)cc1 (racemic) [KBU2046, (±)-3(4-fluorophenyl)chroman-4-one] ; Vd = 0.0636 L

###

- experiment.description: Plasma KBU2046 concentration after dosing in chow
- Format: in vivo
- condition.context: Balb/c athymic, mouse, oral, athymic mice, KBU2046 in chow, doses that decreased metastasis, read-out: plasma concentrations
assay.readout: concentration at 35 days

The compound listed as O=C1c2ccccc2OCC1c1ccc(F)cc1 (racemic) [KBU2046, (±)-3(4-fluorophenyl)chroman-4-one] shows concentration at 35 days equal to 1.1 to 24 nM

###

- experiment.description: Pharmacokinetics in CD1 mice, oral gavage and iv
- Format: in vivo, mouse
- condition.context: CD1(ICR), mouse, plasma, combined fit of both doses by both routes; read-out: Clearance, Fast CLF
assay.readout: clearance (mL/min)
The reply should contain only the number, in mL/min.

GET /value?item= O=C1c2ccccc2OCC1c1ccc(F)cc1 (racemic) [KBU2046, (±)-3(4-fluorophenyl)chroman-4-one] &field=clearance returns 0.61

Data credit: paper PMC6014988
